- target_under_test: T1, Human CD3eg linker (human)
- T1 construct: Single-chain construct; also called recombinant human CD3
- T1 chain: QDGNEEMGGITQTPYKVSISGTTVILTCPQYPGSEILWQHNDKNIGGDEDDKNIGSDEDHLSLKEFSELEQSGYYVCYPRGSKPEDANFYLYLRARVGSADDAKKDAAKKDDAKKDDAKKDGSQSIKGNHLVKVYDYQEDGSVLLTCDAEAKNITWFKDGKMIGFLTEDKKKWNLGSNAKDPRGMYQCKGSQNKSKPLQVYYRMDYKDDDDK
- test_protocol: SPR; fold vs parent H183/L072
Quick list: fold change of affinity per entry.
Expressed in fold, but write only the number.

Recorded results for 2 binders are shown here.
H183/L072 VL F55D (antibody, name in Kabat numbering, V domains shown) VH: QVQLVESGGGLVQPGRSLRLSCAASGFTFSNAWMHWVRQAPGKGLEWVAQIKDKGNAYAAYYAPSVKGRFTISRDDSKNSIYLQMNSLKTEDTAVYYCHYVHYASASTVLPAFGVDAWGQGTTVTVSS VL: DIVMTQSPLSLPVTPGEPASISCQASQELVHMNRNTYLHWYQQKPGQAPRLLIYKVSNRDPGVPDRFSGSGSGTDFTLKISRVEAEDVGVYYCAQGTSVPFTFGQGTKLEIK; 6.1
H183/L072 VL L33E (antibody, name in Kabat numbering, V domains shown) VH: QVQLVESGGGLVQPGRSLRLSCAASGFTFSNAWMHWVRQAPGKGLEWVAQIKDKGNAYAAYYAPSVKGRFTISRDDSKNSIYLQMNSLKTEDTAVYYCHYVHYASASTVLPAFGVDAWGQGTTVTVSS VL: DIVMTQSPLSLPVTPGEPASISCQASQELVHMNRNTYEHWYQQKPGQAPRLLIYKVSNRFPGVPDRFSGSGSGTDFTLKISRVEAEDVGVYYCAQGTSVPFTFGQGTKLEIK; 0

Now for a further binder.
Provide fold change of affinity value for the following binder: H183/L072 VL V94T (antibody, name in Kabat numbering, V domains shown) VH: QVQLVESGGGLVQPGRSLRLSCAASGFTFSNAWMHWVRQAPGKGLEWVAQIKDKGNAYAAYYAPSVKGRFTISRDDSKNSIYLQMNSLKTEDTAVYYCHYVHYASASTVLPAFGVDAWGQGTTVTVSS VL: DIVMTQSPLSLPVTPGEPASISCQASQELVHMNRNTYLHWYQQKPGQAPRLLIYKVSNRFPGVPDRFSGSGSGTDFTLKISRVEAEDVGVYYCAQGTSTPFTFGQGTKLEIK
1.3
